A collection of binders and their measured Emax of OD450 nm binding value
ASSAYED_TARGET: human DLL4 protein (Acro, Cat. No. DL4-H5227) (human) (UniProt Q9NR61)
Sequence (Q9NR61 27-524 limits assumed): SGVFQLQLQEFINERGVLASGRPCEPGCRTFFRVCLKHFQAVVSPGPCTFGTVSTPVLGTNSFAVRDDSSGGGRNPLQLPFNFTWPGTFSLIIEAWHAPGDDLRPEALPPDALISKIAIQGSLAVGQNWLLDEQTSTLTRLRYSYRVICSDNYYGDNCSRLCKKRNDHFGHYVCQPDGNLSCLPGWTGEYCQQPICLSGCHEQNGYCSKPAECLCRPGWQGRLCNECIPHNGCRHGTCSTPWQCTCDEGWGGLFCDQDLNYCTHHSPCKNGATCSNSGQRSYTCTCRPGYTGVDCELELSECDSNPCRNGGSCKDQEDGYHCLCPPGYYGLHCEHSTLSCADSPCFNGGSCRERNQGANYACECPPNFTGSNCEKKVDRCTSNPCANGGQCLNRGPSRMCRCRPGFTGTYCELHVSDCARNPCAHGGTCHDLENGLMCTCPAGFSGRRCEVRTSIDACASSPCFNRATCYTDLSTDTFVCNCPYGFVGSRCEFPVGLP
PROCEDURE_DETAILS: ELISA, coated hDLL4; maximum over 0.1, 1, 10, 100 nM antibody
Numbers only; they are read as OD450 nm.

Hab009VL3aVH1-hFc (scFv, part only; not given: VL-VH linker and human IgG1 Fc, V domains shown, not shown: another chain or arm of the molecule; a dimerising Fc or GST; small tags and cut ends) VL: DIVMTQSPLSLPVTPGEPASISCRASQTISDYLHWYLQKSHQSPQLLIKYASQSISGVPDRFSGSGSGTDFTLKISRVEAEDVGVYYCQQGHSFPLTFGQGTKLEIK VH: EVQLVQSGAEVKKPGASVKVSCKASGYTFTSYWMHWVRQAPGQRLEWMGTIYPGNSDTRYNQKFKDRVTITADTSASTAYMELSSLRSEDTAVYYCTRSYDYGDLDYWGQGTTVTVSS | 0.06
Hab009VL1aVH1-hFc (scFv, part only; not given: scFv linker and human IgG1 Fc, V domains shown, not shown: another chain or arm of the molecule; a dimerising Fc or GST; small tags and cut ends) VL: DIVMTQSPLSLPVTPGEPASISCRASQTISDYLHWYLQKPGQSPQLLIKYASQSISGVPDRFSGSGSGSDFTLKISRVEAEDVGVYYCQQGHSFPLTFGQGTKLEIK VH: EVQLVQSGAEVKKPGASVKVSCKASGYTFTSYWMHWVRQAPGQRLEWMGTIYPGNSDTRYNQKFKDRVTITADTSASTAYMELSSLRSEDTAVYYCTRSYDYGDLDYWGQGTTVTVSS | 0.08

Look up Emax of OD450 nm binding value: Hab014VL3VH1-hFc (scFv, part only; not given: VL-VH linker and human IgG1 Fc, V domains shown, not shown: another chain or arm of the molecule; a dimerising Fc or GST; small tags and cut ends) VL: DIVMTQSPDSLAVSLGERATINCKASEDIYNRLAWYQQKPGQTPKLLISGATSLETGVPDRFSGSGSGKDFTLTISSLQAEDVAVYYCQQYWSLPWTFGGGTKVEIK VH: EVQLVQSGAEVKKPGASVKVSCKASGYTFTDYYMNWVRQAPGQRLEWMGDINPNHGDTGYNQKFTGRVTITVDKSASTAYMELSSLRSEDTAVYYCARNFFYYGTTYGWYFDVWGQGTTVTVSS
0.1
